Origin of the recorded values: ChEMBL document CHEMBL1157539

Tested on: Plasmodium falciparum
Test: GSK_TCMDC: Inhibition of Plasmodium falciparum 3D7 in whole red blood cells, using parasite LDH activity as an index of growth. Test compounds present at 2uM
Format: functional
The entries below are paired with their reported Inhibition.
State just the number; it will be interpreted in %.

# MOLECULE, NUMERIC VALUE
data = [
    ("CC1CCC2(CC1)N=C(N)N=C(N)N2OCc1cc2ccccc2c2ccccc12 (stereo not given)", 97),
    ("CCCC(C)Nc1nc(C)cc(NCCC(=O)Nc2ccccc2)n1.O=C(O)C(F)(F)F (stereo not given)", 96),
    ("Cl.O=c1cc(NCCCNCc2cc3c(Cl)cc(Cl)cc3[nH]2)[nH]c2ccccc12", 100),
    ("Cc1cc(N[C@@H](CC(C)C)C(=O)Nc2ccccc2)nc(NCC2CCCCC2)n1.O=C(O)C(F)(F)F", 100),
]

// moving on: another record for Inhibition
Qu. Fill in: Inhibition of CC(C)c1ccc(NC(=O)c2cccc(CN3CCCN(CC4CCCCC4)CC3)c2)cc1.O=C(O)C(F)(F)F is ___
Ans. 85

====

Test system: Plasmodium falciparum
Test: GSK_TCMDC: Inhibition of Plasmodium falciparum Dd2 in whole red blood cells, using parasite LDH activity as an index of growth. Test compounds present at 2uM
Type: functional
MEASURED ATTRIBUTE: Inhibition (%)
State just the number; it will be interpreted in %.

Solved entries:
# MOLECULE, Inhibition [%]
measured = [
    ("COc1cc2ncnc(Nc3ccc(OCc4ccccc4Br)c(Cl)c3)c2cc1OC.Cl", 6),
    ("O=C(Nc1cccc(-c2cccc(F)c2)c1)C1CCN(Cc2ccc(O)cc2)CC1", 2),
    ("NC(=O)c1ccc(-c2ccc3ccnc(N)c3c2)cc1.O=C(O)C(F)(F)F", 98),
    ("COc1ccc(CNCCCCCCCNCc2ccc(Cl)c(Cl)c2)cc1Cl", 18),
]

Qu. Fill in: Inhibition of CS(=O)(=O)CCNCc1ccc(-c2ccc3c(Nc4ccc(Cl)cc4F)ccnc3c2)o1 is ___
Ans. 98

Qu. Fill in: Inhibition of FC(F)(F)c1ccc2[nH]c(-c3ccc(-c4ccc(CNCC5CCCO5)cc4)cc3)nc2c1.O=C(O)C(F)(F)F (centres undefined) is ___
Ans. 100

Qu. Fill in: Inhibition of CN(C)CC(=O)Nc1cccc(Nc2nccc(NCC(O)c3ccccc3)n2)c1 (centres undefined) is ___
Ans. 3

Qu. Fill in: Inhibition of CC(C)C[C@@H](/C=N/NC(N)=O)NC(=O)[C@H](CC(C)C)NC(=O)[C@H](CC(C)C)NC(=O)OCc1ccccc1 is ___
Ans. 99

Qu. Fill in: Inhibition of Fc1ccc2[nH]c(-c3ccc(-c4cccc(CN5CCN(CCN6CCOCC6)CC5)c4)cc3)nc2c1.O=C(O)C(F)(F)F is ___
Ans. 100

====

System: Plasmodium falciparum
Experiment: GSK_TCMDC: Inhibition of Plasmodium falciparum Dd2 in whole red blood cells, using parasite LDH activity as an index of growth. Test compounds present at 2uM
Assay type: functional
MEASURED ATTRIBUTE: Inhibition (%)
State just the number; it will be interpreted in %.

Solved entries:
# COMPOUND, Inhibition / %
records = [
    ("CC(=O)Nc1ccc(CN2CCC(NC(=O)c3ccc(-c4cccc(F)c4)s3)CC2)cc1.O=C(O)C(F)(F)F", 13),
    ("Cc1ccc(Cn2cnc3cc(C(=O)Nc4ccc(-c5ccc(CN(C)C)cc5)cc4)ccc3c2=O)o1", 12),
    ("O=C(Nc1cccnc1)c1cc(C(=O)Nc2cccnc2)cc([N+](=O)[O-])c1", 100),
    ("C[C@H](Cc1ccc(OCCCCOc2ccc(C[C@@H](C)NC[C@H](O)c3cccc(Cl)c3)cc2)cc1)NC[C@H](O)c1cccc(Cl)c1", 92),
]

Qu. Fill in: Inhibition of Cc1n[nH]c(C)c1C1CCN(CC2CCC(NC(=O)/C=C/c3ccc(Cl)c(Cl)c3)CC2)CC1 (stereo not drawn) is ___
Ans. 53

Qu. Fill in: Inhibition of CN(C)Cc1ccc2cc(NC(=O)c3ccc(-c4ccc(Cl)cc4)cc3)ccc2n1.O=C(O)C(F)(F)F is ___
Ans. 30

Qu. Fill in: Inhibition of O=C(CN1CCC(NCc2cnc(-c3ccc(Cl)cc3)[nH]2)CC1)N1CCc2ccccc21 is ___
Ans. 5

Qu. Fill in: Inhibition of COc1ccc2nccc([C@@H](O)CN3CCC(NCc4cc5c(F)ccc(F)c5[nH]4)CC3)c2c1.O=C(O)C(=O)O is ___
Ans. 67

====

The entries below are paired with their reported Inhibition.
Test system: Plasmodium falciparum
Experiment: GSK_TCMDC: Inhibition of Plasmodium falciparum Dd2 in whole red blood cells, using parasite LDH activity as an index of growth. Test compounds present at 2uM
Type: functional
State just the number; it will be interpreted in %.

Qu. State its Inhibition on Plasmodium falciparum: CC1CCCN(c2ccc(NC(=O)c3cccs3)cc2[N+](=O)[O-])C1 (stereo not given)
Ans. 96

Qu. State its Inhibition on Plasmodium falciparum: Cc1ccc(N(CCC(=N)N)Cc2ccccc2)cc1.Cl
Ans. 95

Qu. State its Inhibition on Plasmodium falciparum: CCC[C@@H]1CCN[C@H]([C@H](O)c2ccnc3ccc(OC)cc23)C1.Cl
Ans. 69

Qu. State its Inhibition on Plasmodium falciparum: COc1ccc(CNCc2cccc(-c3cccc(-c4nc5cc(F)ccc5[nH]4)c3)c2)cc1.O=C(O)C(F)(F)F
Ans. 55

Qu. State its Inhibition on Plasmodium falciparum: Cc1noc(C)c1-c1cccc(C(=O)NC2CCN(CCNC(=O)C(c3ccccc3)c3ccccc3)CC2)c1.O=C(O)C(F)(F)F
Ans. 74

====

Tested on: Plasmodium falciparum
Experiment: GSK_TCMDC: Inhibition of Plasmodium falciparum Dd2 in whole red blood cells, using parasite LDH activity as an index of growth. Test compounds present at 2uM
Assay type: functional
Lab note: cut-off is 50%. Strictly less in Inhibition is 1.0. Exactly 50% or more is 0.0.

Use these answered entries as a reference point.
# MOLECULE, CLASS ASSIGNMENT
measured = [
    ("Cc1nc(C)c(-c2ccc(Oc3cc(Cl)cc(Cl)c3)cc2)c(O)c1Cl", 0.0),
    ("CC(C)(C)OC(=O)NCc1ccc(Nc2nnc(-c3ccc(OCC(=O)NCc4cc(C(F)(F)F)cc(C(F)(F)F)c4)c([N+](=O)[O-])c3)o2)cc1", 0.0),
    ("CC1CN(c2ccc(NC(=O)c3ccc(F)cc3)cc2)CCN1Cc1cccc(F)c1.O=C(O)C(F)(F)F (configuration not stated)", 0.0),
    ("COc1cc(C)nc2ccc(NC(=O)Nc3ccc([N+](=O)[O-])cc3C)cc12", 0.0),
    ("COc1ccc2c(NCCc3ccccc3)cc(-c3ccccc3)nc2c1.Cl", 1.0),
    ("COc1ccc(CNC2CCN(C)CC2)cc1-c1ccc(S(=O)(=O)NCCc2ccccn2)cc1.O=C(O)C(F)(F)F", 1.0),
    ("Cc1cc(NCCc2ccccc2)nc(NC(=N)Nc2cccc(F)c2)n1", 1.0),
    ("CCCCCC(=O)N1CCOC(CCN2CCc3c(c4ccccc4n3C)C2)(c2ccc(Cl)c(Cl)c2)C1 (configuration not stated)", 0.0),
    ("Cl.Oc1ccc(CCCc2cc(Oc3c(I)cc(CCc4ncc[nH]4)cc3I)ccc2O)cc1", 1.0),
    ("COc1ccc(-c2cccc(NC(=O)c3ccc(Cl)cc3)c2)cc1CN1CCC(O)CC1.O=C(O)C(F)(F)F", 1.0),
]

Qu. Would you kindly verify if Inhibition of COc1ccc(-c2nc(NC(=O)COc3ccc(C(C)=O)cc3)sc2C)cc1 is strictly less than 50%?
Ans. 0.0

Qu. Would you kindly verify if Inhibition of COc1ccc2ccc(F)c(CCN3CCC(NCc4cc5c(cn4)OCCO5)CC3)c2n1.Cl is strictly less than 50%?
Ans. 1.0

====

Tested on: Plasmodium falciparum
Test: GSK_TCMDC: Inhibition of Plasmodium falciparum Dd2 in whole red blood cells, using parasite LDH activity as an index of growth. Test compounds present at 2uM
Type: functional
# if value of Inhibition reaches 40%, tag yes; if it stays below, tag no

Use these answered entries as a reference point.
# MOLECULE, CLASS ASSIGNMENT
data = [
    ("O=C(CCC1CCCCC1)NCCNc1cccc2ccccc12", "yes"),
    ("CCc1ccc(C2CCN(CCCCNC(=O)c3ccc(NC(=O)c4ccc(Cl)cc4)cc3)CC2)c(OC(C)=O)c1", "yes"),
    ("CCN(C)c1cc(C(=O)N[C@@H](Cc2ccccc2)[C@H](O)CNC(C)(C)c2cccc(OC)c2)cc(N2CCCC2=O)c1", "yes"),
]

Qu. # check: Inhibition of N#CCCN1CCN(Cc2cccc(-c3ccc(-c4nc5ccccc5[nH]4)cc3)c2)CC1.O=C(O)C(F)(F)F is greater than or equal to 40%
Ans. no
